Tested on: MIA PaCa-2
experiment-description: Antiproliferative activity against human MIA PaCa-2 cells assessed as inhibition of cell growth incubated for 48 hrs by propidium iodide staining based fluorometer assay
Format: functional
condition-notes: MIA PaCa-2, 48 h
Some compounds, each annotated with its measured IC50.
quantity-name: IC50 (µM)

>>> val("COc1cccc(/C=C2\\CCc3ccc(F)cc3C2=O)c1Cl")
15.2
>>> val("COc1ccc(/C=C2\\CCc3ccc(F)cc3C2=O)c(Cl)c1OC")
9.6
>>> val("COc1cccc(/C=C2\\CN(C)C/C(=C\\c3cccc(OC)c3Cl)C2=O)c1Cl")
4.6
>>> val("COc1cc(/C=C2\\COC/C(=C\\c3cc(OC)c(OC)c(OC)c3Br)C2=O)c(Br)c(OC)c1OC")
4.6
>>> val("COc1cc(/C=C2\\CC(C)c3ccccc3\\C2=N\\O)c(Br)c(OC)c1OC (stereo not given)")
2.6
>>> val("COc1ccc(/C=C2\\CC(C)c3ccccc3C2=O)c(Cl)c1OC (stereo not given)")
7.2
>>> val("COc1ccc(/C=C2\\CCc3ccc([N+](=O)[O-])cc3C2=O)c(Cl)c1OC")
1.7
>>> val("COc1cccc(/C=C2\\CCc3ccc(Br)cc3C2=O)c1Cl")
12.8
>>> val("COc1cc(/C=C2\\CC(C)C/C(=C\\c3cc(OC)c(OC)c(OC)c3Br)C2=NO)c(Br)c(OC)c1OC (stereo not given)")
0.7
>>> val("COc1cccc(/C=C2\\CC(C)C/C(=C\\c3cccc(OC)c3Cl)C2=O)c1Cl (stereo not given)")
2.9
